The entries below are paired with their reported EC50.
system: HSV-1; test: Anti-HSV-1 activity in Vero cells; type: cell-based, herpes simplex virus; conditions: read-out: EC50 against HSV-1
State just the number; it will be interpreted in nM.

[
  {
    "molecule": "CC(C)(C)C(=O)OCOP(=O)(OCOC(=O)C(C)(C)C)OC[C@H]1OC[C@@H](n2cc(/C=C/Br)c(=O)[nH]c2=O)O1",
    "reported metric": "EC50",
    "unit label": "nM",
    "readout number": 28
  }
]

Qu. Looking for the measured EC50 of CC(C)OC(=O)OCOP(=O)(OCOC(=O)OC(C)C)OC[C@H]1OC[C@@H](n2cc(/C=C/Br)c(=O)[nH]c2=O)O1 [POC-L-BHDU, Bis (POC) prodrug L-BHDU] , can you help?
Ans. 26

Qu. Given the molecule "CCCCCCCCCCCCCCCCCCOCCOP(=O)(O)OC[C@H]1OC[C@@H](n2cc(/C=C/Br)c(=O)[nH]c2=O)O1" , what is its reported EC50?
Ans. 757

Qu. Form field: reported EC50 of "O=c1[nH]c(=O)n([C@@H]2CO[C@H](CO)O2)cc1/C=C/Br"
Ans. 7

---

System: HSV-1
Experiment: Anti-HSV-1 activity in Vero cells
Type: cell-based, herpes simplex virus
Details: Human alphaherpesvirus 1, read-out: EC50 against HSV-1
Protocol: Additionally, all synthesized compounds were also tested in vitro against herpes simplex viruses (HSV-1, oral herpes) in Vero cells, FIG. 8.
reported metric: EC50
Remember to follow the number with its unit.

Qu. // returns reported EC50 for input Nc1nc2c(ncn2COCCO)c(=O)[nH]1 [acyclovir, reference compound]
Ans. 73.6 nM

---

Data export: CC50 values recorded with Vero Cells.

Below, 2 molecules whose answers are already recorded.
[
  {
    "molecule": "O=c1[nH]c(=O)n([C@@H]2CO[C@H](CO)O2)cc1/C=C/Br [L-BHDU]",
    "target": "Vero Cells",
    "result": "> 100 µM"
  },
  {
    "molecule": "CC(C)(C)C(=O)OCOP(=O)(OCOC(=O)C(C)(C)C)OC[C@H]1OC[C@@H](n2cc(/C=C/Br)c(=O)[nH]c2=O)O1 [POM-L-BHDU]",
    "target": "Vero Cells",
    "result": "> 100 µM"
  }
]

Consider now this further molecule.
Qu. Consider the molecule CC(C)OC(=O)OCOP(=O)(OCOC(=O)OC(C)C)OC[C@H]1OC[C@@H](n2cc(/C=C/Br)c(=O)[nH]c2=O)O1 [POC-L-BHDU, Bis (POC) prodrug L-BHDU] and give its measured CC50.
Ans. > 100 µM

---

System: VZV-ORF57-Luc
Test: Antiviral activity in ARPE-19 cells infected with VZV-ORF57-Luc
Assay type: cell-based, Varicella-zoster virus
Conditions: read-out: EC50 against VZV-ORF57-Luc
Description: To enhance the antiviral activity octadecyloxyethyl-L-BHDU (ODE-L-BHDU, 5) and hexadecyloxypropyl-L-BHDU (HDP-L-BHDU, 6), POM-L-BHDU (8), and POC-L-BDHU (14) (FIGS. 1-3, Schemes 1-3) prodrugs were synthesized with modifications to increase bioavailability and cell penetration. Their antiviral activity was evaluated in ARPE-19 cells infected with VZV-ORF57-Luc, a new reporter virus.
reported metric: EC50
Just the number plus its unit, please.

Here is how some compounds turned out for EC50.
[
  {
    "compound": "CCCCCCCCCCCCCCCCCCOCCOP(=O)(O)OC[C@H]1OC[C@@H](n2cc(/C=C/Br)c(=O)[nH]c2=O)O1",
    "EC50": "68 nM"
  },
  {
    "compound": "CC(C)OC(=O)OCOP(=O)(OCOC(=O)OC(C)C)OC[C@H]1OC[C@@H](n2cc(/C=C/Br)c(=O)[nH]c2=O)O1 [POC-L-BHDU, Bis (POC) prodrug L-BHDU]",
    "EC50": "34 nM"
  },
  {
    "compound": "O=c1[nH]c(=O)n([C@@H]2CO[C@H](CO)O2)cc1/C=C/Br",
    "EC50": "22 nM"
  }
]

Attention now turns to another entry.
Qu. GET /values?readout=EC50&system=VZV-ORF57-Luc&item= "CCCCCCCCCCCCCCCCOCCCOP(=O)(O)OC[C@H]1OC[C@@H](n2cc(/C=C/Br)c(=O)[nH]c2=O)O1"
Ans. 900 nM

---

// reported CC50 per item
tested on: human fibroblast (HFFs) cells; type: cell-based

Some molecules with known CC50 results, for comparison:
[
  {
    "molecule": "CC(C)(C)C(=O)OCOP(=O)(OCOC(=O)C(C)(C)C)OC[C@H]1OC[C@@H](n2cc(/C=C/Br)c(=O)[nH]c2=O)O1",
    "CC50": "> 100 µM"
  },
  {
    "molecule": "O=c1[nH]c(=O)n([C@@H]2CO[C@H](CO)O2)cc1/C=C/Br",
    "CC50": "> 100 µM"
  },
  {
    "molecule": "CCCCCCCCCCCCCCCCOCCCOP(=O)(O)OC[C@H]1OC[C@@H](n2cc(/C=C/Br)c(=O)[nH]c2=O)O1",
    "CC50": "10 µM"
  }
]

Next item in the queue.
Qu. Consider the molecule shown here: CC(C)OC(=O)OCOP(=O)(OCOC(=O)OC(C)C)OC[C@H]1OC[C@@H](n2cc(/C=C/Br)c(=O)[nH]c2=O)O1 [POC-L-BHDU, Bis (POC) prodrug L-BHDU] What is its recorded CC50?
Ans. > 100 µM
